This collection of values is drawn from ChEMBL document CHEMBL1201862.

System: DU-145
Experiment: NCI tumour cell line growth inhibition, 48 h
Active and inactive are the calls of the source. Rule as the data show it: active = GI50 up to about 1.1 µM and inactive = higher.

{"cpdSmiles": "NC(=O)SCC(=O)Nc1ccc2cccc3c2c1CC3", "GI50": "> 100 µM (inactive)"}
{"cpdSmiles": "O=c1c2ccccc2nc(-c2ccc(Cl)cc2)n1O", "GI50": "89.9 µM (inactive)"}
{"cpdSmiles": "CC/C(=N/O)c1ccc(Br)s1", "GI50": "> 100 µM (inactive)"}
{"cpdSmiles": "CN(C)CCCSc1nc2c(c(=N)n1-c1ccccc1)c(=S)n(-c1ccccc1)c(=S)n2-c1ccccc1", "GI50": "1.67 µM (inactive)"}

* * *

System: RPMI-8226
Assay: NCI tumour cell line growth inhibition, 48 h
Calls of active or inactive are those of the source. Cut-off read from the data, not from the text of the source: active = GI50 up to about 1.1 µM and inactive = higher. Non-standard residues stand in square brackets, D forms with d. Residues, ends and D or L forms follow the SMILES beside them. *: point of attachment. NMeF = CN[CH](Cc1ccccc1)C(=O)O; NMeV = CN[CH](C(=O)O)C(C)C; Boc = CC(C)(C)OC(=O)*
Classes used: active, inactive

{"compound": "CC(C)C(NC(=O)OC(C)(C)C)C(=O)N(C)C(Cc1ccccc1)C(=O)N(C)C(C(=O)N(C)C(C(=O)O)C(C)C)C(C)C (configuration not stated) (Boc-V[NMeF][NMeV][NMeV]-OH; configuration not given here)", "discreteLabel": "inactive"}
{"compound": "COc1ccccc1C1ON=C(c2ccc([N+](=O)[O-])cc2)N1C12CC3CC(CC(C3)C1)C2 (configuration not stated)", "discreteLabel": "inactive"}
{"compound": "Cc1cc(C)[n+](CCOc2ccc(/C(=C(/Cl)c3ccccc3)c3ccccc3)cc2)c(C)c1.[O-][Cl+3]([O-])([O-])[O-]", "discreteLabel": "active"}
{"compound": "COc1ccc2ccccc2c1C1=NC(C)(C)CO1", "discreteLabel": "inactive"}
{"compound": "CCOC(=O)[C@@H]1C2C(=C[C@H]3[C@H]1C(=O)N1CCCC[C@H]31)CCCN2C(=O)OCc1ccccc1 (some centres not stated)", "discreteLabel": "inactive"}
{"compound": "CC(=O)OC1COC(N2C(=O)C(=O)c3cc(Br)ccc32)C(OC(C)=O)C1OC(C)=O (configuration not stated)", "discreteLabel": "inactive"}
{"compound": "CC(=O)Oc1c(N2CCCCC2)c(C(=O)c2ccccc2)c(O)c2ccn(N(C)C)c12", "discreteLabel": "inactive"}
{"compound": "C/C(=N\\Nc1ccc([N+](=O)[O-])cc1)C(=O)N(C)Nc1ccccc1", "discreteLabel": "inactive"}
{"compound": "COC(=O)c1ccccc1NC(=O)C(=O)Cc1nc2c3c(ccc2nc1O)C(=O)c1ccccc1C3=O", "discreteLabel": "inactive"}
{"compound": "O=C1/C(=C\\c2cccc(Oc3ccccc3)c2)SC(c2ccccc2)N1c1ccc(Cl)cc1 (configuration not stated)", "discreteLabel": "inactive"}
{"compound": "CSC(SC)=C(C(=O)c1ccc(Cl)cc1)n1c(=O)sc2cc(Br)ccc21", "discreteLabel": "inactive"}
{"compound": "O=C(N/N=C\\c1ccccc1)Nc1cccc2ccccc12", "discreteLabel": "inactive"}

* * *

Each entry below carries its recorded GI50.
Tested on: HT-29
Test: NCI tumour cell line growth inhibition, 48 h
The source made the active and inactive calls. Cut-off read from the data, not from the text of the source: active = GI50 up to about 1.1 µM and inactive = higher.
propertyMeasured: GI50

{"compound": "CC12CCC(C(Nc3ccccn3)C1=O)C2(C)C (centres undefined)", "propertyMeasured": "GI50", "testResult": "> 100 µM (inactive)"}
{"compound": "CCC(=O)Nc1ccc(NC(C#N)c2cccc(Oc3ccccc3)c2)cc1 (centres undefined)", "propertyMeasured": "GI50", "testResult": "33.8 µM (inactive)"}
{"compound": "Cc1cc(O)nc(NN2C(Cl)C(=O)C2c2ccccc2O)n1 (centres undefined)", "propertyMeasured": "GI50", "testResult": "8.39 µM (inactive)"}
{"compound": "C=C(Cl)c1c(OC)cccc1OCc1ccccc1", "propertyMeasured": "GI50", "testResult": "34.5 µM (inactive)"}

* * *

The molecules listed here are annotated with their GI50.
Tested on: U-251
Experiment: NCI tumour cell line growth inhibition, 48 h
Calls of active or inactive are those of the source. No stated cut-off is given here; in the data, active = GI50 up to about 1.1 µM and inactive = higher.

{"molecule": "CCOC(=O)c1oc2ccc([N+](=O)[O-])c3c2c1CCC3", "testSystem": "U-251", "GI50": "29.9 µM (inactive)"}
{"molecule": "COC(=O)C(Cc1nc2ccccc2nc1O)C(NO)C(=O)Nc1c(Cl)cc([N+](=O)[O-])cc1Cl (centres undefined)", "testSystem": "U-251", "GI50": "31.3 µM (inactive)"}
{"molecule": "[N-]=[N+]=Nc1c(Br)c(=O)[nH]c(=O)n1COCCO", "testSystem": "U-251", "GI50": "> 100 µM (inactive)"}
{"molecule": "O=C(CC(=O)C1CCOC1=O)C(=O)Nc1cccc(Cl)c1 (centres undefined)", "testSystem": "U-251", "GI50": "> 100 µM (inactive)"}

* * *

Test system: K562
Assay: NCI tumour cell line growth inhibition, 48 h
Active and inactive are the calls of the source. Rule as the data show it: active = GI50 up to about 1.1 µM and inactive = higher.

{"molecule": "CC1CC2C3CC(F)C4=CC(=O)C=CC4(C)C3(F)C(O)CC2(C)C1(O)C(=O)CO (stereo unspecified)", "testSystem": "K562", "GI50": "> 100 µM (inactive)"}
{"molecule": "CC(=O)OC1COC(N2C(=O)C(=O)c3cc(Br)ccc32)C(OC(C)=O)C1OC(C)=O (stereo unspecified)", "testSystem": "K562", "GI50": "> 100 µM (inactive)"}
{"molecule": "N/C(COc1ccc(Cl)cc1)=N\\NC(=O)c1ccncc1", "testSystem": "K562", "GI50": "> 100 µM (inactive)"}
{"molecule": "C[N+](C)(C)c1ccc(C(N)C(=O)O)cc1 (stereo unspecified)", "testSystem": "K562", "GI50": "> 100 µM (inactive)"}
{"molecule": "CC1CCc2sc3nc(S)n(-c4ccccc4)c(=O)c3c2C1 (stereo unspecified)", "testSystem": "K562", "GI50": "> 100 µM (inactive)"}
{"molecule": "Cc1ccc(NC(=O)CC2SC(=N)NC2=O)cc1C (stereo unspecified)", "testSystem": "K562", "GI50": "> 100 µM (inactive)"}
{"molecule": "COC(=O)N1CC[C@@H]2CCC=C(c3cccc4c3OCO4)[C@@H]21", "testSystem": "K562", "GI50": "42.8 µM (inactive)"}
{"molecule": "O=C1CC(c2ccc(Cl)cc2)=Nc2ccccc2N1", "testSystem": "K562", "GI50": "40 µM (inactive)"}
{"molecule": "S=C1SC(=N\\c2ccccc2)/C(=N/c2ccccc2)N1c1ccc2ccccc2c1", "testSystem": "K562", "GI50": "> 100 µM (inactive)"}
{"molecule": "Nc1nc(N)c(NC(=O)CCCO)c(=O)[nH]1", "testSystem": "K562", "GI50": "> 100 µM (inactive)"}
{"molecule": "CC(=O)NC(C=O)C(O[C@H](C)C(=O)NC(C)C(=O)NC(CCC(N)=O)C(=O)OCc1ccccc1)C(O)C(O)COC(=O)CCNc1c2ccccc2nc2cccc([N+](=O)[O-])c12 (stereo partly specified)", "testSystem": "K562", "GI50": "2.51 µM (inactive)"}

* * *

Test system: HOP-62
Assay: NCI tumour cell line growth inhibition, 48 h
Calls of active or inactive are those of the source. No stated cut-off is given here; in the data, active = GI50 up to about 1.1 µM and inactive = higher.
Overview of recorded GI50 for various molecules

{"molecule": "Cc1c(/N=C/C=C/c2ccccc2)c(=O)n(-c2ccccc2)n1C", "GI50": "33.3 µM (inactive)"}
{"molecule": "CC(=N)OC1CC2CCC1(C)C2(C)C (centres undefined)", "GI50": "> 100 µM (inactive)"}
{"molecule": "C=CCc1c(O)c2ccccc2[nH]c1=O", "GI50": "> 100 µM (inactive)"}
{"molecule": "CC/C(=N/O)c1ccc(Br)s1", "GI50": "> 100 µM (inactive)"}
{"molecule": "Nc1nc(Cl)c(N)c(NCC2(CO)CCC2)n1", "GI50": "> 100 µM (inactive)"}
{"molecule": "CC(=O)Oc1c(C)c2c(c3ncccc13)OC(C)C2 (centres undefined)", "GI50": "17.1 µM (inactive)"}
{"molecule": "COc1ccc2nc3cc(Cl)ccc3c(Sc3ccc(NC(C)=O)cc3)c2c1", "GI50": "> 41.7 µM (inactive)"}
{"molecule": "O=C(NC1CCN(Cc2ccccc2)CC1)c1ccccc1I", "GI50": "19.8 µM (inactive)"}
{"molecule": "COc1ccc(/C=C2\\CCS(=O)(=O)c3ccccc3C2=O)cc1", "GI50": "36.3 µM (inactive)"}

* * *

Listed compounds paired with reported GI50
Test system: SNB-19
Assay: NCI tumour cell line growth inhibition, 48 h
Activity calls are given as the source filed them. No stated cut-off is given here; in the data, active = GI50 up to about 1.1 µM and inactive = higher.

{"compound": "CC(=O)OCC1OC(N2C(=O)[C@@H](Oc3ccccc3)[C@H]2/C=C/c2ccccc2)C(OC(C)=O)C(OC(C)=O)C1OC(C)=O (stereo not given in full)", "testSystem": "SNB-19", "GI50": "31.6 µM (inactive)"}
{"compound": "CCOC(=O)/C(=C\\c1c[nH]c2ccccc12)P(=O)(OCC)OCC", "testSystem": "SNB-19", "GI50": "62.7 µM (inactive)"}
{"compound": "COC(=O)C[C@H](CCSC)NC(=O)C[C@H](CCSC)NC(=O)C[C@H](CCSC)NC(=O)OC(C)(C)C", "testSystem": "SNB-19", "GI50": "20.7 µM (inactive)"}
{"compound": "O=C(Nc1ccc(Cl)c(Cl)c1)N1N=C2c3ccccc3CCC2C1c1ccc(Cl)cc1 (stereo not given)", "testSystem": "SNB-19", "GI50": "> 100 µM (inactive)"}
{"compound": "C=C(Br)CNCC(=C)Br", "testSystem": "SNB-19", "GI50": "> 100 µM (inactive)"}
{"compound": "O=C(NCCN1CCCC1)c1cn2c(ccc3sc4ccccc4c(=O)c32)n1", "testSystem": "SNB-19", "GI50": "13.7 µM (inactive)"}
{"compound": "COC(=O)c1cc(NC(=O)c2cc(NC(=O)c3cc([N+](=O)[O-])cn3C)cn2C)cn1C", "testSystem": "SNB-19", "GI50": "59.6 µM (inactive)"}
{"compound": "Nc1nc(O)nc2sc3c(c12)CCCC3", "testSystem": "SNB-19", "GI50": "55.8 µM (inactive)"}
{"compound": "CC1=NN(c2nc(N)nc(CCl)n2)C(C)(C)C1", "testSystem": "SNB-19", "GI50": "> 61.9 µM (inactive)"}
{"compound": "CCCO/N=[N+](\\[O-])N(CC)CC", "testSystem": "SNB-19", "GI50": "> 100 µM (inactive)"}
